Consider the following compounds; for each one, report its pEC50.
- Tested on: RS4;11 (ALL)
- test settings: read-out: EC50 in vitro cytotoxicity (% cell viability), 5-day compound treatment, FIG. 1
Formally, pEC50 is defined as -log10 of the concentration c, with c in mol/L.

Task item: Query (compound): C[C@@H]1C[C@H]2[C@@H]3CCC4=CC(=O)C=C[C@]4(C)[C@@]3(F)[C@@H](O)C[C@]2(C)[C@@]1(O)C(=O)CO ; field requested: pEC50
Reply: 8.48

Task item: Query (compound): C[C@]12C=CC(=O)C=C1CC[C@@H]1[C@@H]2[C@@H](O)C[C@@]2(C)[C@H]1CC[C@]2(O)C(=O)CO [prednisolone, reference compound] ; field requested: pEC50
Reply: 7.08
